System: MCF7
Assay: Antiproliferative activity, MTT assay
Assay type: cell-based
Conditions: Homo sapiens, 72 h, standard deviations within 50%
pIC50: −log10 of the molar value.

{"Compound": "C#CCNC(=O)Nc1ccc(-c2ccc3c(N4CCOCC4)nc(N4CCOCC4)nc3c2)cc1 [Compound 7l]", "Relation Operator": "<", "pIC50": 4.30}
{"Compound": "O=C(Nc1ccc(F)cc1)Nc1ccc(-c2ccc3c(N4CCOCC4)nc(N4CCOCC4)nc3c2)cc1 [Compound 7g]", "Relation Operator": "=", "pIC50": 5.31}
{"Compound": "O=C(Nc1ccc(-c2ccc3c(N4CCOCC4)nc(N4CCOCC4)nc3c2)cc1)Nc1ccc([N+](=O)[O-])cc1 [Compound 7f]", "Relation Operator": "=", "pIC50": 5.19}
{"Compound": "O=C(Nc1ccc(-c2ccc3c(N4CCOCC4)nc(N4CCOCC4)nc3c2)cc1)NC1CC1 [Compound 7d]", "Relation Operator": "=", "pIC50": 5.28}
{"Compound": "O=C(NCCc1cccnc1)Nc1ccc(-c2ccc3c(N4CCOCC4)nc(N4CCOCC4)nc3c2)cc1 [Compound 7c]", "Relation Operator": "=", "pIC50": 6.70}
{"Compound": "COc1ccc(CNC(=O)Nc2ccc(-c3ccc4c(N5CCOCC5)nc(N5CCOCC5)nc4c3)cc2)cc1 [Compound 7b]", "Relation Operator": "=", "pIC50": 5.96}
{"Compound": "COC(=O)c1ccc(NC(=O)Nc2ccc(-c3ccc4c(N5CCOCC5)nc(N5CCOCC5)nc4c3)cc2)cc1 [Compound 7j]", "Relation Operator": "=", "pIC50": 5.42}
{"Compound": "N[C@@H](CCCCNC(=O)Nc1ccc(-c2ccc3c(N4CCOCC4)nc(N4CCOCC4)nc3c2)cc1)C(=O)O [Compound 7e]", "Relation Operator": "=", "pIC50": 5.02}
{"Compound": "O=C(Nc1ccc(-c2ccc3c(N4CCOCC4)nc(N4CCOCC4)nc3c2)cc1)Nc1ccccn1 [Compound 7h]", "Relation Operator": "=", "pIC50": 4.89}
{"Compound": "CCOC(=O)N1CCN(C(=O)Nc2ccc(-c3ccc4c(N5CCOCC5)nc(N5CCOCC5)nc4c3)cc2)CC1 [Compound 7k]", "Relation Operator": "=", "pIC50": 4.96}
{"Compound": "O=C(NCc1ccco1)Nc1ccc(-c2ccc3c(N4CCOCC4)nc(N4CCOCC4)nc3c2)cc1 [Compound 7a]", "Relation Operator": "=", "pIC50": 5.18}
{"Compound": "O=C(Nc1ccc(-c2ccc3c(N4CCOCC4)nc(N4CCOCC4)nc3c2)cc1)Nc1cccc2ccccc12 [Compound 7i]", "Relation Operator": "=", "pIC50": 5.21}
